B1: FANCE (parent)
chain: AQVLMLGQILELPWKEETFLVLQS

Variants of: B1
ASSAY: protein stability index of a GFP-peptide fusion (GPS, HEK-293T) (PSI 1-6); higher = more stable;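 further: lentivirally expressed fusions sorted by FACS into six bins by GFP to DsRed ratio, PSI derived from sequencing read proportions per bin multiplied by bin number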
MEASUREMENT CONDITIONS: c terminus: a fixed tail appended
Parameter threshold = 3. Response is fulfilled when protein stability index meets or exceeds it, else not fulfilled.

Could you tell me if the measured protein stability index of F19D reaches 3 or more?
not fulfilled

Could you tell me if the measured protein stability index of Q2K reaches 3 or more?
not fulfilled

Could you tell me if the measured protein stability index of E11T reaches 3 or more?
not fulfilled

Could you tell me if the measured protein stability index of Q23V reaches 3 or more?
not fulfilled

Could you tell me if the measured protein stability index of L4N reaches 3 or more?
not fulfilled

Could you tell me if the measured protein stability index of S24R reaches 3 or more?
not fulfilled

Could you tell me if the measured protein stability index of V3T reaches 3 or more?
not fulfilled

Could you tell me if the measured protein stability index of Q8F reaches 3 or more?
not fulfilled

Could you tell me if the measured protein stability index of W14N reaches 3 or more?
fulfilled

Could you tell me if the measured protein stability index of W14L reaches 3 or more?
not fulfilled

Could you tell me if the measured protein stability index of K15T reaches 3 or more?
fulfilled

Could you tell me if the measured protein stability index of Q8G reaches 3 or more?
fulfilled

Could you tell me if the measured protein stability index of P13A reaches 3 or more?
fulfilled

Could you tell me if the measured protein stability index of P13Y reaches 3 or more?
not fulfilled
